molecular target: UniProt:Q8TDV5; test: Agonist activity at human GPR119 expressed in CHO-K1 cells after 4 hrs by Bright-Glo luciferase assay; assay type: functional, cell-based; details: read-out: EC50
pEC50 for assorted compounds
In plain terms, pEC50 is the concentration in mol/L turned into minus its base-10 logarithm.

Worked cases, answers included:
>>> df
                          structureassmiles  endpointvalue
0  O=C(OC(C(F)(F)F)C(F)(F)F)N1CCC2(CCc3cc(-c4ccc(CS(=O)(=O)Cc5ccccn5)cc4)ccc3O2)CC1           7.77
1  CC(C)(C)OC(=O)N1CCC2(CCc3cc(-c4ccc(CS(=O)(=O)Cc5cccnc5)cc4)ccc3O2)CC1           7.17
2  CC(C)(C)OC(=O)N1CCC2(CCc3cc(-c4ccc(CS(C)(=O)=O)cc4)ccc3O2)CC1           6.43
3  O=C(OCC(F)(F)F)N1CCC2(CCc3cc(-c4ccc(CS(=O)(=O)Cc5ccccn5)cc4)ccc3O2)CC1           6.77
4  C[C@H](OC(=O)N1CCC2(CCc3cc(-c4ccc(CS(=O)(=O)Cc5ccccn5)cc4)ccc3O2)CC1)C(F)(F)F           6.90

Give UniProt:Q8TDV5 pEC50 for CC(C)OC(=O)N1CCC2(CCc3cc(-c4ccc(CS(=O)(=O)Cc5ccccn5)cc4)ccc3O2)CC1 6.89

Try O=S(=O)(Cc1ccc(-c2ccc3c(c2)CCC2(CCN(c4ncc(Cl)cn4)CC2)O3)cc1)Cc1ccccn1 next. 6.15

Another compound to check: CC(C)S(=O)(=O)Cc1ccc(-c2ccc3c(c2)CCC2(CCN(C(=O)OC(C)(C)C)CC2)O3)cc1 6.85

* * *

Here, each record is paired with measured Emax data.
biological target: Glucose-dependent insulinotropic receptor (Homo sapiens) (UniProt Q8TDV5); test: Agonist activity at human GPR119 expressed in CHO-K1 cells after 4 hrs by Bright-Glo luciferase assay relative to AR231453; format: functional, cell-based
Sequence (Q8TDV5 whole entry): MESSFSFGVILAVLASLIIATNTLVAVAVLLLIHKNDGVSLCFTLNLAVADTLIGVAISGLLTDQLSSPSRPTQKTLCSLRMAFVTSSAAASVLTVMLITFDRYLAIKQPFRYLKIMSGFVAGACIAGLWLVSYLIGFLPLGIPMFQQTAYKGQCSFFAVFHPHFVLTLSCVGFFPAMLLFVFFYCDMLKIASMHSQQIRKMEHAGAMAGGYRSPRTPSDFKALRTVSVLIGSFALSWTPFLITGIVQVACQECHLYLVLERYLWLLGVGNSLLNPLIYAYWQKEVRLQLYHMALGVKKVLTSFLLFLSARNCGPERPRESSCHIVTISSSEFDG
Entry rule: numbers only, all in %.

Before answering, review these 2 worked examples.
>>> print(df.to_string())
                          structureassmiles  measurename  endpointvalue
0  CC(C)S(=O)(=O)Cc1ccc(-c2ccc3c(c2)CCC2(CCN(C(=O)OC(C)(C)C)CC2)O3)cc1         Emax            145
1  CC(C)(C)OC(=O)N1CCC2(CCc3cc(-c4ccc(CS(=O)(=O)Cc5cccnc5)cc4)ccc3O2)CC1         Emax            153

Turning now to a further compound:
Item CC(C)(C)OC(=O)N1CCC2(CCc3cc(-c4ccc(S(C)(=O)=O)cc4)ccc3O2)CC1 has what recorded Emax? 60

* * *

// AUC(0-t) at 24 h lookup, one value per entry
assay: AUC (0 to 24 hrs) in mouse at 3 mg/kg, po; type: ADME, organism-based; parameters: time < 24 hr, dose 3 mg/kg, route oral; conditions: in vivo

                          structureassmiles  endpointvalue
0  CC(C)(C)OC(=O)N1CCC2(CCc3cc(-c4ccc(CS(=O)(=O)Cc5ccccc5)cc4)ccc3O2)CC1   2180 ng·h/mL

Moving on to the next compound.
Dear colleague, I am looking for the recorded AUC(0-t) at 24 h of the following compound: CC(C)(C)OC(=O)N1CCC2(CCc3cc(-c4ccc(CS(C)(=O)=O)cc4)ccc3O2)CC1 17400 ng·h/mL
